Origin of the recorded values: patent EP4345092A1

What MBC was measured for each of the following?
Test system: Mycobacterium tuberculosis H37Rv (ATCC 27294)
ASSAY PROCEDURE: microbe, parasite or virus in culture
Assay type: cell-based
SETUP CONDITIONS: 504 h
Answers are plain numbers, in µg/mL.

Below, each entry is followed by its recorded MBC result.
COc1ccc(OCCCCCCCCCNC(=O)c2cc([N+](=O)[O-])cc([N+](=O)[O-])c2)cc1 [Compound 24] :: 0.031
O=C(NCCCCCOc1ccc([N+](=O)[O-])cc1)c1cc([N+](=O)[O-])cc([N+](=O)[O-])c1 [Compound 17] :: 0.125
COc1ccc(OCCCCCNC(=O)c2cc([N+](=O)[O-])cc([N+](=O)[O-])c2)cc1 [Compound 15] :: 0.125
O=C(NCCCCCCCCCCCO)c1cc([N+](=O)[O-])cc([N+](=O)[O-])c1 [Compound 41] :: 0.25

Next up:
Query block: API: value(readout=MBC, system=Mycobacterium tuberculosis H37Rv (ATCC 27294)) for record COc1ccc(OCCCCCCCCCCCNC(=O)c2cc([N+](=O)[O-])cc([N+](=O)[O-])c2)cc1 [Compound 26]
Result block: 0.125

* * *

Test system: Mycobacterium tuberculosis H37Rv (ATCC 27294)
ASSAY PROCEDURE: microbe, parasite or virus in culture
Format: cell-based
SETUP CONDITIONS: 504 h
What MBC was measured for each of the following?
Answers are plain numbers, in µg/mL.

Below, each entry is followed by its recorded MBC result.
O=C(NCCCCCOc1ccc(-c2ccccc2)cc1)c1cc([N+](=O)[O-])cc([N+](=O)[O-])c1 :: 0.125
O=C(c1cc([N+](=O)[O-])cc([N+](=O)[O-])c1)N1CCC(O)CC1 :: 16

Please supply MBC for each of the following items, keeping them in order.
1. O=C(c1cc([N+](=O)[O-])cc([N+](=O)[O-])c1)N1CCN(Cc2ccccc2)CC1
2. COc1ccc(OCCCNC(=O)c2cc([N+](=O)[O-])cc([N+](=O)[O-])c2)cc1

Result block:
[4, 0.125]

* * *

Test system: Mycobacterium tuberculosis H37Rv (ATCC 27294)
ASSAY PROCEDURE: microbe, parasite or virus in culture
Format: cell-based
SETUP CONDITIONS: 504 h
Decide using MBC alone. Strictly below 0.1 µg/mL: 1.0. Equal to or above 0.1 µg/mL: 0.0.

See these solved cases before continuing.
O=[N+]([O-])c1cc(C2=NCCCO2)cc([N+](=O)[O-])c1 :: 0.0
O=C(NCCCOc1ccc(-c2ccccc2)cc1)c1cc([N+](=O)[O-])cc([N+](=O)[O-])c1 :: 0.0
O=C(NCCCCCOc1ccc(OC(F)(F)F)cc1)c1cc([N+](=O)[O-])cc([N+](=O)[O-])c1 :: 1.0
O=C(NCCCCCOc1ccccc1)c1cc([N+](=O)[O-])cc([N+](=O)[O-])c1 :: 1.0
O=C(NCCCCCOc1ccc(F)cc1)c1cc([N+](=O)[O-])cc([N+](=O)[O-])c1 :: 1.0

Query block: Criterion: MBC strictly below 0.1 µg/mL. Is it met by O=C(NCCCCCOc1ccc(Cc2ccccc2)cc1)c1cc([N+](=O)[O-])cc([N+](=O)[O-])c1 ?
Result block: 0.0

Query block: Criterion: MBC strictly below 0.1 µg/mL. Is it met by O=[N+]([O-])c1cc(C2=NCCO2)cc([N+](=O)[O-])c1 [Compound 47, 2-(3,5-dinitrophenyl)-4,5-dihydrooxazole] ?
Result block: 0.0

Query block: Criterion: MBC strictly below 0.1 µg/mL. Is it met by O=C(NCCCCCOc1ccc(C(F)(F)F)cc1)c1cc([N+](=O)[O-])cc([N+](=O)[O-])c1 ?
Result block: 1.0

Query block: Criterion: MBC strictly below 0.1 µg/mL. Is it met by O=C(c1cc([N+](=O)[O-])cc([N+](=O)[O-])c1)N1CCCCC1 ?
Result block: 0.0

* * *

What MBC was measured for each of the following?
Test system: Mycobacterium tuberculosis H37Rv (ATCC 27294)
ASSAY PROCEDURE: microbe, parasite or virus in culture
Format: cell-based
SETUP CONDITIONS: 504 h
Answers are plain numbers, in µg/mL.

O=C(NCCCCCOc1ccc(Cl)cc1)c1cc([N+](=O)[O-])cc([N+](=O)[O-])c1 [Compound 19] :: 0.063
O=C(NCCCOc1ccccc1)c1cc([N+](=O)[O-])cc([N+](=O)[O-])c1 [Compound 13] :: 0.125

Please supply MBC for each of the following items, keeping them in order.
1. O=C(NCCCOc1ccc(F)cc1)c1cc([N+](=O)[O-])cc([N+](=O)[O-])c1 [Compound 11]
2. O=C(NCCCCCOc1ccc(Br)cc1)c1cc([N+](=O)[O-])cc([N+](=O)[O-])c1 [Compound 22]
3. O=C(c1cc([N+](=O)[O-])cc([N+](=O)[O-])c1)N1CCC(Cc2ccccc2)CC1 [Compound 31]
4. O=C(NCCCOc1ccc(OC(F)(F)F)cc1)c1cc([N+](=O)[O-])cc([N+](=O)[O-])c1 [Compound 10]

Result block:
1. 0.125
2. 0.063
3. 2
4. 0.25
